// values below are reported 1 Assay (20 uM) 4B3
- assay-system: PDE4B3 (Mus musculus, UniProt Q8VBU5)
- Construct: targets used in the assays are full-length proteins (as opposed to simply the catalytic domain); expressed in transfected cells; host or cells: Schizosaccharomyces pombe, PDE gene integrated in place of cgs2
- Sequence (Q8VBU5 1-721): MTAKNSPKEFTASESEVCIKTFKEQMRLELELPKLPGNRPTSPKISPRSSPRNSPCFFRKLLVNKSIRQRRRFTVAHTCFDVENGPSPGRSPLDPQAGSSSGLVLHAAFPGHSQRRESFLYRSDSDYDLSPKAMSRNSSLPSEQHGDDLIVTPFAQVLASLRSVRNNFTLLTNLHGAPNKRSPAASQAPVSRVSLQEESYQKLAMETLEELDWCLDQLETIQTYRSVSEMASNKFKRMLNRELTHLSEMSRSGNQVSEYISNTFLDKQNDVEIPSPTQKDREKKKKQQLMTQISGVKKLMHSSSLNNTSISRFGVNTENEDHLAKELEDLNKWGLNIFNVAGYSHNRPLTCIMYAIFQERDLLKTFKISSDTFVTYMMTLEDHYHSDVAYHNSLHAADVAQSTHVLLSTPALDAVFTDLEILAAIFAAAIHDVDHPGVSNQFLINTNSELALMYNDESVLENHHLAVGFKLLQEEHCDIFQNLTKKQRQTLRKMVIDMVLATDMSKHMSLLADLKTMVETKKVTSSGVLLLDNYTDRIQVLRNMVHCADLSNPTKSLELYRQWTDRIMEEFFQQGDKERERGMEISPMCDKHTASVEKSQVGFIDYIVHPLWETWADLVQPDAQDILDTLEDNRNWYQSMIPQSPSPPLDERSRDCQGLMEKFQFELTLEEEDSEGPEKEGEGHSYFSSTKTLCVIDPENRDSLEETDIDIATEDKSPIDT
- test-protocol: 5FOA growth assay in fission yeast strain expressing PDE4B3
- Type: cell-based, Murine
- applied-conditions: 20 uM
Give your result in ND ND ND ND as a bare value.

Req: Look up 1 Assay (20 uM) 4B3 for this compound: COC(=O)C1/C(=C/c2cccc(OC)c2O)C(=O)N(c2ccccc2F)C1C (stereo not drawn)
Resp: 24.16

// below: 1 Assay (20 uM) 4B3 requested for another compound
Req: Look up 1 Assay (20 uM) 4B3 for this compound: "CCOC(=O)c1sc2sc(C(=O)OCC)c(-c3ccco3)c2c1N"
Resp: 8.4406

* * *

- assay-system: PDE7A (Homo sapiens)
- Sequence (Q13946 whole entry): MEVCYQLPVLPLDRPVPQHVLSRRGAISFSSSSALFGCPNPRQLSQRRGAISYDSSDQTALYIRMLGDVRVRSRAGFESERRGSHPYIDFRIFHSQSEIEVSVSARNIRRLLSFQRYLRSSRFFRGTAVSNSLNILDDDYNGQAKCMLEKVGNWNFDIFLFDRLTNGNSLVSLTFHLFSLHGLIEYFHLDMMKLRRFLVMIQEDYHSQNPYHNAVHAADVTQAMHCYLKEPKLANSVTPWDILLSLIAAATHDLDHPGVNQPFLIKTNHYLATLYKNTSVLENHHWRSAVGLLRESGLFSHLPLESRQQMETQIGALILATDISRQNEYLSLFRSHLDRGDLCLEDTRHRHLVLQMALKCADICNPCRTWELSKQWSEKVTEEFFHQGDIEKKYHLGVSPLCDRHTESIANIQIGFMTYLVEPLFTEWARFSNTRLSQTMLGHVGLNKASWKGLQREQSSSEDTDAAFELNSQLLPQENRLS
- test-protocol: 5FOA growth assay in fission yeast strain expressing PDE7A
- Type: cell-based
- Set-up: targets used in the assays are full-length proteins (as opposed to simply the catalytic domain); expressed in transfected cells; host or cells: Schizosaccharomyces pombe, PDE gene integrated in place of cgs2
- applied-conditions: unit not given
- Experimental: PDE inhibition allows growth in 5FOA medium as measured by optical density after 48 hours incubation at 30° C. Compound BC12 and six structural analogs were tested for growth stimulation. Cells were pregrown in EMM medium [MP Biomedicals (Solon, Ohio), 3% glucose, filter-sterilized to avoid carmelization, which would introduce variability into the optical density of the medium] containing from 0 mM to 2.5 mM cAMP (or either 0.5 mM or 1.0 mM cGMP). […]
measured-metric: ED50, 7A

Req: Look up ED50, 7A for this compound: "N#Cc1sc2sc(C#N)c(-c3ccc(Cl)cc3)c2c1N"
Resp: ND ND inactive ND ND

Req: Similarly, "CCOC(=O)c1sc2sc(C(=O)OCC)c(-c3ccco3)c2c1N" ?
Resp: ND ND inactive ND ND

* * *

- assay-system: PDE4B3 (Mus musculus)
- Construct: targets used in the assays are full-length proteins (as opposed to simply the catalytic domain); expressed in transfected cells; host or cells: Schizosaccharomyces pombe, PDE gene integrated in place of cgs2
- test-protocol: 5FOA growth assay in fission yeast strain expressing PDE4B3
- Assay type: cell-based, Murine
- applied-conditions: high throughput 5FOA growth screen
measured-metric: Composite Z score, PDE4B3
Reply briefly: the number, and no unit.

Solved entries:
Req: Look up Composite Z score, PDE4B3 for this compound: COc1ccc(CCNc2ncnc3sc(C)c(C)c23)cc1OC [Compound 1423F01]
Resp: 4.2065

Req: Similarly, COc1ccc(C(=O)Nc2ncnc3sc4c(c23)CCCC4)cc1OC [Compound 1414F18] ?
Resp: −0.382

Req: Similarly, CC(C)(C)C(=O)Nc1ncnc2sc3c(c12)CCCC3 [Compound 1379O22] ?
Resp: −0.703

Req: Similarly, c1ccc(CN2CCN(c3ncnc4sc5c(c34)CCCCC5)CC2)cc1 [Compound 2074A07] ?
Resp: 0.8366

Req: Similarly, CCC(CO)Nc1nc(C)nc2sc3c(c12)CCC3 (stereo not drawn) [Compound 1422J17] ?
Resp: −0.936

Continuing:
Req: Look up Composite Z score, PDE4B3 for this compound: Cc1nc(N2CCOCC2)c2c(C)c(C(=O)Nc3cccc(Cl)c3C)sc2n1 [Compound 1424K08]
Resp: 21.717

Req: Similarly, CCNc1nc(C)nc2sc3c(c12)CCCC3 [Compound 1410G03] ?
Resp: 2.8289

Req: Similarly, CCOC(=O)c1sc2ncnc(N3CCc4ccccc4C3)c2c1C [Compound 1379L18] ?
Resp: 1.8207

Req: Similarly, CC(C)N(C)c1ncnc2sc3c(c12)CCC3 [Compound 1407G21] ?
Resp: 0.0445
